tested on: Escherichia coli; assay: Antibacterial activity against gram-negative Escherichia coli EC155 harboring tet(A) by CLSI method; type: functional
Measured Parameter: MIC (µg/mL)

Input Smiles | Measured Parameter | Endpoint Result
CN(C)[C@@H]1C(O)=C(C(N)=O)C(=O)[C@@]2(O)C(O)=C3C(=O)c4c(O)cc([C@@H]5CCCN5)cc4C[C@H]3C[C@@H]12 | MIC | 4
CN(C)[C@@H]1C(O)=C(C(N)=O)C(=O)[C@@]2(O)C(O)=C3C(=O)c4c(O)cc([C@@H]5CCCN5)c(F)c4C[C@H]3C[C@@H]12 | MIC | 16
CN(C)[C@@H]1C(O)=C(C(N)=O)C(=O)[C@@]2(O)C(O)=C3C(=O)c4c(O)cc([C@@H]5CCCN5C)c(C(F)(F)F)c4C[C@H]3C[C@@H]12 | MIC | 0.5
CN(C)[C@@H]1C(O)=C(C(N)=O)C(=O)[C@@]2(O)C(O)=C3C(=O)c4c(O)cc([C@H]5CCCN5)c(C(F)(F)F)c4C[C@H]3C[C@@H]12 | MIC | 2
CCCN1CCC[C@H]1c1cc(O)c2c(c1C(F)(F)F)C[C@H]1C[C@H]3[C@H](N(C)C)C(O)=C(C(N)=O)C(=O)[C@@]3(O)C(O)=C1C2=O | MIC | 2
CN(C)c1cc(NC(=O)CNC(C)(C)C)c(O)c2c1C[C@H]1C[C@H]3[C@H](N(C)C)C(O)=C(C(N)=O)C(=O)[C@@]3(O)C(O)=C1C2=O | MIC | 1
